Overview of reported Change across a group of molecules:
Test system: Rattus norvegicus
Procedure Text: Hypolipidemic effects(plasma TG) in male rats at 12.50 mg/kg
Assay type: functional
Particulars: dose 12.5 mg/kg
Endpoint: Change (%)

Molecule | Endpoint | Recorded Result
CC(C)(CCCOc1ccc(SCCCC(C)(C)C(=O)O)cc1)C(=O)O | Change | 0
Cc1ccc(C)c(OCCCC(C)(C)C(=O)O)c1 [GEMFIBROZIL] | Change | 45
CC(C)(CCCCOc1ccc(OCCCCC(C)(C)C(=O)O)cc1)C(=O)O | Change | -16
CC(C)(CCCOc1ccc(OCCCC(C)(C)C(=O)O)c(-c2ccccc2)c1)C(=O)O | Change | 32
CC(C)(CCCOc1ccc(OCCCC(C)(C)C(=O)O)c(Cl)c1)C(=O)O | Change | -28
COC(=O)C(C)(C)CCCOc1ccc(OCCCC(C)(C)C(=O)OC)c(C)c1 | Change | 0

###

Test system: Rattus norvegicus
Procedure Text: Hypolipidemic effects as the ratio of (HDL/LDL) in male rats at dose 50 mg/kg.
Format: functional
// class 0 strictly below 1000% in Change; class 1 otherwise

Chemical Smiles | Group Label
CC(C)(CCCOc1ccc(OCCCC(C)(C)C(=O)O)c(-c2ccccc2)c1)C(=O)O | class 1
CC(C)(CCCOc1ccc(OCCCC(C)(C)C(=O)O)c(Cl)c1)C(=O)O | class 1
CC(C)(CCCCOc1ccc(OCCCCC(C)(C)C(=O)O)cc1)C(=O)O | class 1
CC(C)(CCCOc1ccc(SCCCC(C)(C)C(=O)O)cc1)C(=O)O | class 0

###

Overview of reported Change across a group of molecules:
Organism: Rattus norvegicus
Procedure Text: Hypolipidemic effects(liver weight) in male rats
Format: functional

Molecule | Change
CC(C)(CCCOc1cccc(OCCCC(C)(C)C(=O)O)c1)C(=O)O | 17%
CC(C)(CCCCCOc1cccc(OCCCCCC(C)(C)C(=O)O)c1)C(=O)O | 0%
CC(C)(CCCOc1cc(Cl)c(OCCCC(C)(C)C(=O)O)cc1Cl)C(=O)O | 41%
CCC(=O)c1cc(OCCCC(C)(C)C(=O)OC)ccc1OCCCC(C)(C)C(=O)OC | 40%
COC(=O)C(C)(C)CCCSc1ccc(Oc2ccc(SCCCC(C)(C)C(=O)OC)cc2)cc1 | 4%
COC(=O)C(C)(C)CCCSc1ccc(Cl)c(SCCCC(C)(C)C(=O)OC)c1 | 0%
COC(=O)C(C)(C)CCCOc1ccc(C(=O)c2ccc(OCCCC(C)(C)C(=O)OC)cc2)cc1 | 0%
COC(=O)C(C)(C)CCCOc1cc(OC)c(OCCCC(C)(C)C(=O)OC)cc1OC | 0%
CC(O)c1cc(OCCCC(C)(C)C(=O)O)ccc1OCCCC(C)(C)C(=O)O (centres undefined) | 12%
CCCCCc1cc(OCCCC(C)(C)C(=O)OC)cc(OCCCC(C)(C)C(=O)OC)c1 | 8%
COc1ccc(-c2cc(OCCCC(C)(C)C(=O)O)ccc2OCCCC(C)(C)C(=O)O)cc1 | 0%
COC(=O)C(C)(C)CCCOc1ccccc1OCCCC(C)(C)C(=O)OC | 0%
COC(=O)C(C)(C)CCCOc1cc(OCCCC(C)(C)C(=O)OC)c(Cl)cc1Cl | 0%
COC(=O)C(C)(C)CCCOc1ccc(OCCCC(C)(C)C(=O)OC)c(C(C)=O)c1 | 21%
COC(=O)C(C)(C)CCCOc1cccc(OCCCC(C)(C)C(=O)OC)c1[N+](=O)[O-] | 5%
COC(=O)C(C)(C)CCCOc1cccc(OCCCC(C)(C)C(=O)OC)c1N | 8%
CC(C)(CO)CCCOc1ccc(OCCCC(C)(C)CO)c(-c2ccccc2)c1 | 30%
COC(=O)C(C)(C)CCCOc1ccc(OCCCC(C)(C)C(=O)OC)c(Br)c1 | 30%
COC(=O)C(C)(C)CCCOc1ccc(OCCCC(C)(C)C(=O)OC)c(F)c1 | 41%
COC(=O)c1ccc(OCCCC(C)(C)C(=O)OC)cc1OCCCC(C)(C)C(=O)OC | 0%
CC(C)(CCOc1ccc(OCCC(C)(C)C(=O)O)cc1)C(=O)O | 40%
CC(C)(CCCOc1ccc(OCCCC(C)(C)C(=O)O)c(-c2ccc(Cl)cc2)c1)C(=O)O | 17%
CC(C)(CCCOc1ccc(SCCCC(C)(C)C(=O)O)cc1)C(=O)O | 18%
CC(C)(CCCOc1ccc(S(=O)(=O)CCCC(C)(C)C(=O)O)cc1)C(=O)O | 9%
Cc1ccc(-c2cc(OCCCC(C)(C)C(=O)O)ccc2OCCCC(C)(C)C(=O)O)cc1 | 0%
Cc1ccccc1-c1cc(OCCCC(C)(C)C(=O)O)ccc1OCCCC(C)(C)C(=O)O | 22%
COC(=O)C(C)(C)CCCOc1ccc(OCCCC(C)(C)C(=O)OC)c(C#N)c1C#N | 0%
CC(C)(CCCOc1ccc(OCCCC(C)(C)C(=O)O)c(Cc2ccccc2)c1)C(=O)O | 14%
CC(C)(CCCOc1ccc(Sc2ccc(OCCCC(C)(C)C(=O)O)cc2)cc1)C(=O)O | 0%
COC(=O)C(C)(C)CCCCCOc1ccccc1OCCCCCC(C)(C)C(=O)OC | 11%
COC(=O)C(C)(C)CCCOc1cccc(OCCCC(C)(C)C(=O)OC)c1C(C)=O | 0%
COC(=O)C(C)(C)CCCOc1ccc(OCCCC(C)(C)C(=O)OC)c(C2CCCCC2)c1 | 6%
COC(=O)C(C)(C)CCCOc1ccc(OCCCC(C)(C)C(=O)OC)c(/C=N/N=C(\N)S)c1 | 0%
CC(C)(CO)CCCCOc1ccc(OCCCCC(C)(C)CO)cc1 | 30%
CC(C)(CCCOc1ccc(OCCCC(C)(C)C(=O)O)c(Sc2ccccc2)c1)C(=O)O | 14%
COC(=O)C(C)(C)CCCOc1ccc(OCCCC(C)(C)C(=O)OC)c(/C=N/NC(N)=O)c1 | 4%
COC(=O)C(C)(C)CCCOc1ccc(OCCCC(C)(C)C(=O)OC)c(OC)c1 | 30%
CCCC(=O)c1cc(OCCCC(C)(C)C(=O)OC)ccc1OCCCC(C)(C)C(=O)OC | 34%
CC(C)(CCCOc1ccc([S+]([O-])CCCC(C)(C)C(=O)O)cc1)C(=O)O (centres undefined) | 19%
